assay: Cytotoxicity against C8166 cells by MTT assay; type: cell-based; conditions: human
Checkbox rule: CC50 lower than 10 µM = Satisfied; CC50 not lower than 10 µM = Not satisfied.

Quick check: does CCC1(c2cccc(I)c2)Oc2ccccc2-n2cccc2C1=O (racemic) have CC50 under 10 µM? Not satisfied

Quick check: does CCC1(c2ccc(CNc3ccccc3)cc2)Oc2ccccc2-n2cccc2C1=O (racemic) have CC50 under 10 µM? Not satisfied

Quick check: does CCC1(c2ccc(COc3cccnc3)cc2)Oc2ccccc2-n2cccc2C1=O (racemic) have CC50 under 10 µM? Not satisfied

Quick check: does CCC1(c2cccc(Cl)c2)Oc2ccccc2-n2cccc2C1=O (racemic) have CC50 under 10 µM? Satisfied

Quick check: does CC(C)=CCN1Cc2c(Cl)ccc3[nH]c(=S)n(c23)C[C@@H]1C have CC50 under 10 µM? Not satisfied

Quick check: does CCC1(c2ccc(COc3ccccc3)cc2)Oc2ccccc2-n2cccc2C1=O (racemic) have CC50 under 10 µM? Satisfied

Quick check: does CCC1(c2ccc(COc3cccc(Cl)c3)cc2)Oc2ccccc2-n2cccc2C1=O (racemic) have CC50 under 10 µM? Not satisfied

====

target: Human immunodeficiency virus type 1 reverse transcriptase (Human immunodeficiency virus 1, UniProt Q72547, V106A); experiment: Inhibition of HIV1 RT V106A mutant
Checkbox rule: IC50 lower than 5 µmol = Fulfilled; IC50 not lower than 5 µmol = Not fulfilled.

# count of solved cases: 5
INSERT INTO assay_data (compound, category_label) VALUES
  ('CCC1(c2cccc(Cl)c2)Oc2ccccc2-n2cccc2C1=O (racemic)', 'Fulfilled'),
  ('C=C(C)CCOCc1ccc(C2(CC)Oc3ccccc3-n3cccc3C2=O)cc1 (racemic)', 'Fulfilled'),
  ('CCC1(c2cccc(COc3ccccc3)c2)Oc2ccccc2-n2cccc2C1=O (racemic)', 'Not fulfilled'),
  ('CCC1(c2ccc(I)cc2)Oc2ccccc2-n2cccc2C1=O (racemic)', 'Not fulfilled'),
  ('CCC1(c2cccc(OC)c2)Oc2ccccc2-n2cccc2C1=O (racemic)', 'Fulfilled');

Quick check: does CCC1(c2ccc(CNc3cccc(F)c3)cc2)Oc2ccccc2-n2cccc2C1=O (racemic) have IC50 under 5 µmol? Fulfilled

Quick check: does CCC1(c2cccc(I)c2)Oc2ccccc2-n2cccc2C1=O (racemic) have IC50 under 5 µmol? Fulfilled

Quick check: does CCC1(c2ccc(Cn3ccsc3=N)cc2)Oc2ccccc2-n2cccc2C1=O (racemic) have IC50 under 5 µmol? Not fulfilled

====

assay: Selectivity index, ratio of CC50 for C8166 cells to IC50 for HIV-3B infected C8166 cells; format: functional
In this section we review reported Selectivity index values for a set of compounds.
Enter a number only.

Previously resolved entries follow.
INSERT INTO assay_data (compound, property_name, experimental_value) VALUES
  ('CCC1(c2ccc(COc3cccc(Cl)c3)cc2)Oc2ccccc2-n2cccc2C1=O (racemic)', 'Selectivity index', 22.3),
  ('CCC1(c2ccc(CNc3ccccc3)cc2)Oc2ccccc2-n2cccc2C1=O (racemic)', 'Selectivity index', 20.1),
  ('CCC1(c2ccc(COc3cccnc3)cc2)Oc2ccccc2-n2cccc2C1=O (racemic)', 'Selectivity index', 101);

The recorded Selectivity index for CCC1(c2ccc(COc3ccccc3)cc2)Oc2ccccc2-n2cccc2C1=O (racemic) is 117

The recorded Selectivity index for CCC1(c2cccc(I)c2)Oc2ccccc2-n2cccc2C1=O (racemic) is 10.8
